Target: HLA-A*01:01
Test: IEDB peptide-MHC binding, purified MHC/direct/fluorescence; filed as Kd, often an IC50 or EC50 that approximates it; bounds were set here for any values at or beyond the usual limits of such assays
Details: source organism: Camelpox virus M-96
pKd: −log10 of the molar value.
Provide the recorded pKd for the entries that follow.

Example results:
- querySequence: "YPAVINSNI"
  pKd: "≤ 4.70"
- querySequence: "EIKDRILSY"
  pKd: "≤ 4.70"
- querySequence: "NTDNKFISY"
  pKd: "≥ 9.00"

In the following, a different sequence is considered.
Query string: Look at this sequence and give its reported pKd. DILASIIDY
Result string: ≤ 4.70

---

Biological target: HLA-A*26:03
Assay: IEDB peptide-MHC binding, purified MHC/competitive/fluorescence; filed as Kd, often an IC50 or EC50 that approximates it; bounds were set here for any values at or beyond the usual limits of such assays
Conditions: source organism: Mycobacterium tuberculosis variant bovis BCG str. Pasteur 1173P2
pKd: −log10 of the molar value.
endpointName: pKd

Query string: Look at this sequence and give its reported pKd. AVFDSFVER
Result string: ≤ 4.70

---

Molecular target: HLA-B*15:03
Test: IEDB peptide-MHC binding, purified MHC/competitive/radioactivity; filed as Kd, often an IC50 or EC50 that approximates it; bounds were set here for any values at or beyond the usual limits of such assays
Conditions: source organism: Vaccinia virus WR
Provide the recorded Kd for the entries that follow.
Answers are plain numbers, in nM.

Example results:
- querySequence: "KIVMTPSPF"
  recordedResult: 211
- querySequence: "LQISRVNDL"
  recordedResult: 34.4
- querySequence: "LMFKHLLHP"
  recordedResult: 25.9
- querySequence: "FMYFCEQKL"
  recordedResult: 35.7

List reported Kd for each of these sequences:
1. VMSQEDNHF
2. LMMTLPSIF
3. LKSPKRCSF
4. AKSQSDTVF
5. YMSSEPIIF
6. SQTIELIAF

Result string:
1: 102; 2: 0.152; 3: 2.74; 4: 0.16; 5: 0.304; 6: 0.206

List reported Kd for each of these sequences:
1. RMFGSKPTF
2. LTIACRVSL
3. IEVSSDISF

Result string:
[0.206, 599, 9.74]

---

Target: HLA-B*53:01
Test: IEDB peptide-MHC binding, purified MHC/competitive/radioactivity; filed as Kd, often an IC50 or EC50 that approximates it; bounds were set here for any values at or beyond the usual limits of such assays
Conditions: source organism: Dengue virus 3 Martinique/1243/1999
endpointName: pKd
Answers are plain numbers, as −log10 of the molar value.

Example results:
- querySequence: "LPVWLAHKV"
  recordedResult: 6.08
- querySequence: "IANELNYILW"
  recordedResult: 7.10
- querySequence: "LATAIAGAW"
  recordedResult: 7.70

In the following, a different sequence is considered.
Query string: Look at this sequence and give its reported pKd. PPTAGVLARW
Result string: 5.31

---

Target: HLA-B*08:01
Assay: IEDB peptide-MHC binding, purified MHC/direct/fluorescence; filed as Kd, often an IC50 or EC50 that approximates it; bounds were set here for any values at or beyond the usual limits of such assays
Conditions: source organism: Coxiella burnetii
endpointName: pKd
Answers are plain numbers, as −log10 of the molar value.

Query string: Look at this sequence and give its reported pKd. VMKRNFIDF
Result string: 5.65

---

Biological target: HLA-A*32:01
Assay: IEDB peptide-MHC binding, purified MHC/competitive/radioactivity; filed as Kd, often an IC50 or EC50 that approximates it; bounds were set here for any values at or beyond the usual limits of such assays
Settings: source organism: Vaccinia virus Copenhagen
endpointName: pKd
Answers are plain numbers, as −log10 of the molar value.

Query string: Give the reported pKd for KIDFLFFII (system: HLA-A*32:01).
Result string: 8.71

---

Molecular target: HLA-A*33:01
Experiment: IEDB peptide-MHC binding, purified MHC/competitive/radioactivity; filed as Kd, often an IC50 or EC50 that approximates it; bounds were set here for any values at or beyond the usual limits of such assays
Settings: source organism: Triticum aestivum
endpointName: Kd

Query string: Look at this sequence and give its reported Kd. VVLQQHSIAY
Result string: ≥ 70 µM

---

Target: HLA-A*26:01
Test: IEDB peptide-MHC binding, purified MHC/competitive/fluorescence; filed as Kd, often an IC50 or EC50 that approximates it; bounds were set here for any values at or beyond the usual limits of such assays
Settings: source organism: Orthomarburgvirus marburgense
endpointName: Kd

Query string: Look at this sequence and give its reported Kd. GIADFIIFK
Result string: ≥ 20 µM

---

Molecular target: HLA-A*03:01
Assay: IEDB peptide-MHC binding, purified MHC/competitive/radioactivity; filed as Kd, often an IC50 or EC50 that approximates it; bounds were set here for any values at or beyond the usual limits of such assays
Details: source organism: Vaccinia virus WR
pKd: −log10 of the molar value.
Respond with 1 (yes) for pKd values of 6 and above, 0 (no) for values below.

Query string: Kindly determine if pKd recorded for FMEMFFDYNK is above or exactly 6.
Result string: 1 (yes)

Query string: Kindly determine if pKd recorded for YIYKSGKLVK is above or exactly 6.
Result string: 1 (yes)

---

Molecular target: HLA-B*46:01
Test: IEDB peptide-MHC binding, purified MHC/direct/fluorescence; filed as Kd, often an IC50 or EC50 that approximates it; bounds were set here for any values at or beyond the usual limits of such assays
Conditions: source organism: Yellow fever virus
Provide the recorded Kd for the entries that follow.

Example results:
- querySequence: "GMMGGLWKY"
  targetOfAssay: "HLA-B*46:01"
  recordedResult: "≥ 20 µM"
- querySequence: "RSHAAIGAY"
  targetOfAssay: "HLA-B*46:01"
  recordedResult: "≥ 20 µM"

In the following, a different sequence is considered.
Query string: Look at this sequence and give its reported Kd. SIQDNQVAY
Result string: 19.7 µM

---

Provide the recorded Kd for the entries that follow.
Biological target: HLA-A*03:01
Assay: IEDB peptide-MHC binding, purified MHC/direct/fluorescence; filed as Kd, often an IC50 or EC50 that approximates it; bounds were set here for any values at or beyond the usual limits of such assays
Settings: source organism: Mycobacterium tuberculosis

- querySequence: "RGRIGRTYL"
  endpointName: "Kd"
  recordedResult: "≥ 20 µM"
- querySequence: "IPAPGLGAL"
  endpointName: "Kd"
  recordedResult: "≥ 20 µM"

In the following, a different sequence is considered.
Query string: Look at this sequence and give its reported Kd. VPRDRNGTF
Result string: ≥ 20 µM

---

Target: HLA-A*02:19
Test: IEDB peptide-MHC binding, purified MHC/competitive/fluorescence; filed as Kd, often an IC50 or EC50 that approximates it; bounds were set here for any values at or beyond the usual limits of such assays
Settings: source organism: Campylobacter jejuni subsp. jejuni NCTC 11168 = ATCC 700819
endpointName: Kd

Query string: Look at this sequence and give its reported Kd. FTFERSKIK
Result string: ≥ 20 µM

---

Provide the recorded Kd for the entries that follow.
Molecular target: HLA-A*33:01
Experiment: IEDB peptide-MHC binding, purified MHC/competitive/radioactivity; filed as Kd, often an IC50 or EC50 that approximates it; bounds were set here for any values at or beyond the usual limits of such assays
Settings: source organism: Vaccinia virus WR

Example results:
- querySequence: "EVFGSTGDY"
  recordedResult: "≥ 77.7 µM"
- querySequence: "RLGLVLDDY"
  recordedResult: "≥ 77.7 µM"
- querySequence: "NIVTFINDY"
  recordedResult: "≥ 77.7 µM"
- querySequence: "NAPIKEFKAK"
  recordedResult: "3.31 µM"
- querySequence: "TILEYLYIMR"
  recordedResult: "2.3 µM"

List reported Kd for each of these sequences:
1. DVKASMLEKY
2. TIKYSNDNR
3. MMFINSTCY
4. SAEDNYLAK
5. SLVKKNKKR
6. RVVVQIDPEY

Result string:
1. 16.7 µM
2. 0.116 µM
3. 3.93 µM
4. ≥ 77.7 µM
5. ≥ 77.7 µM
6. ≥ 70 µM

List reported Kd for each of these sequences:
1. ITFLRPVLK
2. NIILSKIPY
3. NISIIVLFQR
4. PVSMTYLYNK
5. WSRIGTAATK
6. EIIGGNDMY
7. RFVKFNDYR

Result string:
0.0845 µM
9.76 µM
1.4 µM
≥ 70 µM
≥ 70 µM
≥ 77.7 µM
0.237 µM

List reported Kd for each of these sequences:
1. ISKIYTLIYR
2. KLQARNIQK
3. DSLLITNTK

Result string:
["0.000458 µM", "0.927 µM", "0.00516 µM"]

---

Target: HLA-B*51:01
Test: IEDB peptide-MHC binding, purified MHC/competitive/radioactivity; filed as Kd, often an IC50 or EC50 that approximates it; bounds were set here for any values at or beyond the usual limits of such assays
Details: source organism: Triticum aestivum
endpointName: pKd
One number for each entry, as −log10 of the molar value.

- querySequence: "QPYLQLQPF"
  endpointName: "pKd"
  recordedResult: 7.00

In the following, a different sequence is considered.
Query string: Look at this sequence and give its reported pKd. IPEQSRCQAI
Result string: 6.61
